Exercise: state measured phosphorylation enrichment for each of the sequences provided.
Target: MERTK (UniProt Q12866)
Sequence (Q12866 whole entry, looked up): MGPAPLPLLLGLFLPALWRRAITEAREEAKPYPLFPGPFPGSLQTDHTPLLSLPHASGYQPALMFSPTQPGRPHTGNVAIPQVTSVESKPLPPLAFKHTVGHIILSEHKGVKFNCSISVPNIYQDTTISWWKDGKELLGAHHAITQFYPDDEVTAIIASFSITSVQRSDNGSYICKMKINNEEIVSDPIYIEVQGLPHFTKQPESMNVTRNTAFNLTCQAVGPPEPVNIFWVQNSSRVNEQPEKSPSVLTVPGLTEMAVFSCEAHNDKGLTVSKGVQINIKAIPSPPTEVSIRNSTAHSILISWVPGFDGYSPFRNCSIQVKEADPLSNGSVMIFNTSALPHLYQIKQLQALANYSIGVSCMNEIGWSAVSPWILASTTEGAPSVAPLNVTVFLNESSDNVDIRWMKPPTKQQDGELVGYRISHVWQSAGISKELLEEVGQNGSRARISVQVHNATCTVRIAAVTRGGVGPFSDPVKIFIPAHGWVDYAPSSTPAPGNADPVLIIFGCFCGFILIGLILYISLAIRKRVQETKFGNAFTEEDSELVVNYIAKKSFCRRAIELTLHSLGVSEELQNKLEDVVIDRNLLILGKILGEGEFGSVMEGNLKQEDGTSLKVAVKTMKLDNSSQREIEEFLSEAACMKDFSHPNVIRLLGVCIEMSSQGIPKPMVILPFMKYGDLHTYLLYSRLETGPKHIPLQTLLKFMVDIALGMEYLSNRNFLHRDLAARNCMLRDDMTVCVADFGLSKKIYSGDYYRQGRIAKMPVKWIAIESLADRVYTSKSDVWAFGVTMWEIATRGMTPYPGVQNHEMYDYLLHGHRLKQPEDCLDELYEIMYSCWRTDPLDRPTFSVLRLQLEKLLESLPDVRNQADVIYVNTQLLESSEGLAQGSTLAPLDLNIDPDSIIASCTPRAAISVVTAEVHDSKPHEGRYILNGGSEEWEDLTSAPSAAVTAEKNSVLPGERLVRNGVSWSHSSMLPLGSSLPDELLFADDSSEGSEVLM
Assay: phosphorylation enrichment, bacterial display (enrichment ratio); higher = better substrate or ligand; peptides without Tyr show the background;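 also: 11-residue human phosphosite peptides and single-mutation variants displayed on the E. coli surface, counted by deep sequencing, each peptide's frequency after selection divided by its frequency in the unselected input library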;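 also: frequency after pTyr selection over input frequency; kinase dosed for 20-30% of maximal phosphorylation in three min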
The response must contain the number and no unit.

Briefly, phosphorylation enrichment measured for NVVVPYEPPEV [TP53_Y220_S215N] : 0.493

Briefly, phosphorylation enrichment measured for EYFENYIEELK [PARP4_Y218] : 0.422

Briefly, phosphorylation enrichment measured for IIGNGYYFRVF [MYBPC3_Y1135] : 0.318

Briefly, phosphorylation enrichment measured for IMITDYLPLFR [INSR_Y87_L89P] : 0.427

Briefly, phosphorylation enrichment measured for NPQKSYFILLY [WAS_Y83_R86L] : 0.396

Briefly, phosphorylation enrichment measured for FLEKFYKFGSR [NNMT_Y25_YF] : 0.433

Briefly, phosphorylation enrichment measured for RIVEIYSRRLQ [GCH1_Y175] : 0.678

Briefly, phosphorylation enrichment measured for HKLSYCEYDFE [BTK_Y40_Y40C] : 0.535

Briefly, phosphorylation enrichment measured for VASMFYTLVIP [OR8K3_Y277_I275M] : 5.7

Briefly, phosphorylation enrichment measured for WDSSGYWTPEE [PAPPA2_Y908_C903W] : 0.502

Briefly, phosphorylation enrichment measured for VSFDEYRFRSF [CFTR_Y515_V520F_YF] : 0.45

Briefly, phosphorylation enrichment measured for RKNAKYLLKGE [CDH5_Y82] : 0.718

Briefly, phosphorylation enrichment measured for RSAGKYDVFFI [MECP2_Y120_L124F_YF] : 0.722

Briefly, phosphorylation enrichment measured for KRNSLYSFSDH [CCDC82_Y331_Q327R] : 4.12

Briefly, phosphorylation enrichment measured for SISLKYEGRVY [ABL1_Y167_R166K] : 0.451

Briefly, phosphorylation enrichment measured for GRLPEYNTPIA [CCDC151_Y542_R545P] : 0.407

Briefly, phosphorylation enrichment measured for AHAGEYGVEAL [HBA1_Y25_A27V] : 0.422

Briefly, phosphorylation enrichment measured for ESMQSYDLDYP [UNC13B_Y243_D238E] : 0.466

Briefly, phosphorylation enrichment measured for HYPDVYAWEQL [ALX3_Y181_R183W] : 3.27

Briefly, phosphorylation enrichment measured for DKGTLYIAEQI [PLBD1_Y375_V377A] : 0.346

Briefly, phosphorylation enrichment measured for EEGRVYVFRLS [ITGAE_Y549_YF] : 0.475

Briefly, phosphorylation enrichment measured for KHTLSYVDVGT [SDHA_Y629] : 0.295

Briefly, phosphorylation enrichment measured for NDDDVYRSLEE [VAV2_Y142] : 0.524

Briefly, phosphorylation enrichment measured for HLELNYKEDEY [MME_Y502_Y497H] : 0.396

Briefly, phosphorylation enrichment measured for ITVCDYTNPCT [MYD88_Y276] : 0.426

Briefly, phosphorylation enrichment measured for EPVSDYINASI [PTPN11_Y304_N308S] : 0.494

Briefly, phosphorylation enrichment measured for GHNNVYISEHV [GRIN2A_Y1423_D1421N] : 0.419

Briefly, phosphorylation enrichment measured for SGFESYGSSSS [RPA2_Y9_Y14S] : 0.502

Briefly, phosphorylation enrichment measured for QKTGDYFDLFG [PTPN11_Y62_N58K_YF] : 1.04

Briefly, phosphorylation enrichment measured for YGTAQYCCRMG [LRRK2_Y2023_I2020T] : 2.78

Briefly, phosphorylation enrichment measured for WDLSEYSFKDP [ITGA3_Y237_YF] : 0.445

Briefly, phosphorylation enrichment measured for NHQYDYTFDWT [CSNK1A1_Y294] : 1.04

Briefly, phosphorylation enrichment measured for PRSRSYFSTSI [REPS2_Y462_S463F] : 0.496

Briefly, phosphorylation enrichment measured for GSETPYMDRTP [ESS2_Y335_V336M] : 0.365

Briefly, phosphorylation enrichment measured for FESPRYLQVRI [FANCA_Y488_H492R] : 0.437

Briefly, phosphorylation enrichment measured for LDTSQYFRLFN [CPT2_Y217_M214T] : 0.532

Briefly, phosphorylation enrichment measured for TEQDPYNSIVR [MMUT_Y364_N366S] : 0.4

Briefly, phosphorylation enrichment measured for ACRSLYGGFVE [MVD_Y164] : 0.621

Briefly, phosphorylation enrichment measured for EGLKVYVNGTL [ADGRD1_Y183] : 0.469

* * *

Biological target: EPHB1 (UniProt P54762)
Sequence (P54762 whole entry, looked up): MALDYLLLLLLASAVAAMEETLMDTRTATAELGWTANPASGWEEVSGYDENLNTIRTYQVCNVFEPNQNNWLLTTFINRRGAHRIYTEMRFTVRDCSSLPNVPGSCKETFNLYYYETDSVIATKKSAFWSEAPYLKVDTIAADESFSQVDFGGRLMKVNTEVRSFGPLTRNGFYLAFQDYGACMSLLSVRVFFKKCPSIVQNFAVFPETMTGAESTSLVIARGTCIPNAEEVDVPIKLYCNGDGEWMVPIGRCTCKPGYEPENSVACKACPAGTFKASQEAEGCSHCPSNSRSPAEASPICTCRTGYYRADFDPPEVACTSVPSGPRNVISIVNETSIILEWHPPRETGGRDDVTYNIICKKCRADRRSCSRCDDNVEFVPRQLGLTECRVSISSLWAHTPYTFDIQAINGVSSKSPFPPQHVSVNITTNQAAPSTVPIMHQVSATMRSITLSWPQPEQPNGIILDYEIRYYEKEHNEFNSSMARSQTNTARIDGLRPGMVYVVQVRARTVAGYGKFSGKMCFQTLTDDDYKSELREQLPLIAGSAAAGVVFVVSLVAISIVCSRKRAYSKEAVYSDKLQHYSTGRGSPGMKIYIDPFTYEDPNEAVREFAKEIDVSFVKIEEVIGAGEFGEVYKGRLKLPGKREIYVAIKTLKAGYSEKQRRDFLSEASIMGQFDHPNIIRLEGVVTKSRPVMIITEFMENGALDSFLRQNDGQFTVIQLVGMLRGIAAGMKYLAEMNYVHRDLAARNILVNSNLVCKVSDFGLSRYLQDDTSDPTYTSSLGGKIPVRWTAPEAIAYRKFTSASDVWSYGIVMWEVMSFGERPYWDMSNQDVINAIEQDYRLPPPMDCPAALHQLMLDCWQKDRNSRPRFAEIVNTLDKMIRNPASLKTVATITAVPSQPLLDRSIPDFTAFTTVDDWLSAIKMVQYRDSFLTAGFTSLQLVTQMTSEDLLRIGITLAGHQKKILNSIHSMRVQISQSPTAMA
Test: phosphorylation enrichment, bacterial display (enrichment ratio); higher = better substrate or ligand; peptides without Tyr show the background
Please mark Criterion met if the recorded phosphorylation enrichment is equal to or greater than 0.6, and Criterion not met if it falls below.

Quick check: does KMGNIYRTEFG [MRPL3_Y265_YF] have phosphorylation enrichment greater than or equal to 0.6? Criterion not met

Quick check: does EVESPYEVRDF [GIGYF2_Y1168_H1171R_YF] have phosphorylation enrichment greater than or equal to 0.6? Criterion met

Quick check: does WASSSYRETPS [SORBS1_Y79_R74W] have phosphorylation enrichment greater than or equal to 0.6? Criterion not met

Quick check: does LITTLYIDFLG [KCNQ1_Y267_G269D] have phosphorylation enrichment greater than or equal to 0.6? Criterion met

Quick check: does EEHIPCTHMNG [INSR_Y1361_Y1361C] have phosphorylation enrichment greater than or equal to 0.6? Criterion not met

Quick check: does SVVVPYEPLEV [TP53_Y220_P223L] have phosphorylation enrichment greater than or equal to 0.6? Criterion not met

Quick check: does ITNLLYHVVSW [GBA_Y412_G416S] have phosphorylation enrichment greater than or equal to 0.6? Criterion met

Quick check: does LDPIQYSKHPP [SQSTM1_Y433_T430P] have phosphorylation enrichment greater than or equal to 0.6? Criterion not met

Quick check: does NLTVNYKKNLI [SQOR_Y259] have phosphorylation enrichment greater than or equal to 0.6? Criterion not met

Quick check: does CVRTIYTIDGS [DCLK2_Y124_G119C] have phosphorylation enrichment greater than or equal to 0.6? Criterion met

Quick check: does LSAPWYLNRIS [HEXA_Y421] have phosphorylation enrichment greater than or equal to 0.6? Criterion not met

Quick check: does HLELNYKEDEY [MME_Y502_Y497H] have phosphorylation enrichment greater than or equal to 0.6? Criterion not met

Quick check: does ASKEPYYVHCI [MYO1D_Y585_R588H] have phosphorylation enrichment greater than or equal to 0.6? Criterion met

Quick check: does PLGVPYLDKPP [JMJD7_Y31_A28G] have phosphorylation enrichment greater than or equal to 0.6? Criterion met

Quick check: does WCSNDHLGMSR [ALAS2_Y199_Y199H] have phosphorylation enrichment greater than or equal to 0.6? Criterion not met

Quick check: does EEKSCYILHSS [PATJ_Y783_E780K] have phosphorylation enrichment greater than or equal to 0.6? Criterion met

Quick check: does AAVDTVCRHNF [HLA-DRB1_Y107_Y107V_YF] have phosphorylation enrichment greater than or equal to 0.6? Criterion not met

Quick check: does LQIPMYEVQWK [KIT_Y553_K550I] have phosphorylation enrichment greater than or equal to 0.6? Criterion met

Quick check: does ALAQKYHGGGG [HBB_Y146_H144Q] have phosphorylation enrichment greater than or equal to 0.6? Criterion not met

Quick check: does EVRTQYEEIAQ [KRT76_Y361_A359T] have phosphorylation enrichment greater than or equal to 0.6? Criterion met

Quick check: does NAMRRHIEEFQ [MNS1_Y244_Y244H] have phosphorylation enrichment greater than or equal to 0.6? Criterion not met

Quick check: does RLLVVYPWTQG [HBG2_Y36_R41G] have phosphorylation enrichment greater than or equal to 0.6? Criterion not met

Quick check: does RFVTRHIFNRE [HLA-DQB1_Y62_Y62H_YF] have phosphorylation enrichment greater than or equal to 0.6? Criterion not met

Quick check: does ILNANCMAKRL [GLDC_Y839_Y839C] have phosphorylation enrichment greater than or equal to 0.6? Criterion not met

Quick check: does DKTGEYPVPLT [ACADM_Y73_I78T] have phosphorylation enrichment greater than or equal to 0.6? Criterion not met

Quick check: does CDYKKYGKGLR [ZNF445_Y433_Y428C] have phosphorylation enrichment greater than or equal to 0.6? Criterion not met

Quick check: does MPLTEYLKRIK [CNGB3_Y200] have phosphorylation enrichment greater than or equal to 0.6? Criterion not met

Quick check: does DLLMQYPKAQG [FAM83C_Y600] have phosphorylation enrichment greater than or equal to 0.6? Criterion not met

Quick check: does LKKLEYLNLPL [LRRC6_Y70_A74P] have phosphorylation enrichment greater than or equal to 0.6? Criterion not met

Quick check: does DGTVHYVDEKG [IFT140_Y216] have phosphorylation enrichment greater than or equal to 0.6? Criterion met

Quick check: does VVPGSYDRLRV [IFT172_Y260_L257P] have phosphorylation enrichment greater than or equal to 0.6? Criterion not met

Quick check: does ANAYIYVVQLP [L1CAM_Y420] have phosphorylation enrichment greater than or equal to 0.6? Criterion met

Quick check: does KGNMFYENSFA [EGFR_Y113_R108K_YF] have phosphorylation enrichment greater than or equal to 0.6? Criterion not met

Quick check: does DHPSEYAARQL [ANXA13_Y90_R86H] have phosphorylation enrichment greater than or equal to 0.6? Criterion not met

Quick check: does MTRDIYETDYY [INSR_Y1185] have phosphorylation enrichment greater than or equal to 0.6? Criterion met

Quick check: does AHAGEYGVEAL [HBA1_Y25_A27V] have phosphorylation enrichment greater than or equal to 0.6? Criterion not met

Quick check: does IVTLKYPIEHG [ACTB_Y69_L65V] have phosphorylation enrichment greater than or equal to 0.6? Criterion not met
